# study-target: human TAS1R2-K689Q/TAS1R3-WT (Homo sapiens, UniProt Q7RTX0+Q8TE23, K689Q)
# Construct: expressed in transfected cells; host or cells: HEK293T-Gα16gust44
# assay-info: Calcium mobilisation assay, TAS1R2 variant K689Q with TAS1R3-WT
# Type: cell-based
# condition-description: maximal signal amplitude, "-": no activation
measure-name: Max ΔF/F0

compound | measure-name | test-value
C=C1C[C@@]23CC[C@H]4[C@@](C)(CCC[C@@]4(C)C(=O)O[C@@H]4O[C@H](CO)[C@@H](O)[C@H](O[C@@H]5O[C@H](CO)[C@@H](O)[C@H](O)[C@H]5O)[C@H]4O[C@@H]4O[C@H](CO)[C@@H](O)[C@H](O)[C@H]4O)[C@@H]2CC[C@]1(O[C@@H]1O[C@H](CO)[C@@H](O)[C@H](O[C@@H]2O[C@H](CO)[C@@H](O)[C@H](O)[C@H]2O)[C@H]1O[C@@H]1O[C@H](CO)[C@@H](O)[C@H](O)[C@H]1O)C3 [Rebaudioside M, rebaudioside M] | Max ΔF/F0 | 0.36
OC[C@H]1O[C@H](O[C@]2(CCl)O[C@H](CCl)[C@@H](O)[C@@H]2O)[C@H](O)[C@@H](O)[C@H]1Cl | Max ΔF/F0 | 0.08
C[C@H](CC[C@@H](O[C@@H]1O[C@H](CO[C@@H]2O[C@H](CO)[C@@H](O)[C@H](O)[C@H]2O)[C@@H](O)[C@H](O)[C@H]1O[C@@H]1O[C@H](CO)[C@@H](O)[C@H](O)[C@H]1O)C(C)(C)O)[C@H]1CC[C@@]2(C)[C@@H]3CC=C4[C@@H](CC[C@H](O[C@@H]5O[C@H](CO[C@@H]6O[C@H](CO)[C@@H](O)[C@H](O)[C@H]6O)[C@@H](O)[C@H](O)[C@H]5O)C4(C)C)[C@]3(C)[C@H](O)C[C@]12C [Mogroside V, mogroside V] | Max ΔF/F0 | 0.54

---

# study-target: human TAS1R2-WT/TAS1R3-P780A (Homo sapiens, UniProt Q7RTX0+Q8TE23, P780A)
# Construct: expressed in transfected cells; host or cells: HEK293T stably expressing Gα16gust44
# Sequence (Q8TE23 20-839): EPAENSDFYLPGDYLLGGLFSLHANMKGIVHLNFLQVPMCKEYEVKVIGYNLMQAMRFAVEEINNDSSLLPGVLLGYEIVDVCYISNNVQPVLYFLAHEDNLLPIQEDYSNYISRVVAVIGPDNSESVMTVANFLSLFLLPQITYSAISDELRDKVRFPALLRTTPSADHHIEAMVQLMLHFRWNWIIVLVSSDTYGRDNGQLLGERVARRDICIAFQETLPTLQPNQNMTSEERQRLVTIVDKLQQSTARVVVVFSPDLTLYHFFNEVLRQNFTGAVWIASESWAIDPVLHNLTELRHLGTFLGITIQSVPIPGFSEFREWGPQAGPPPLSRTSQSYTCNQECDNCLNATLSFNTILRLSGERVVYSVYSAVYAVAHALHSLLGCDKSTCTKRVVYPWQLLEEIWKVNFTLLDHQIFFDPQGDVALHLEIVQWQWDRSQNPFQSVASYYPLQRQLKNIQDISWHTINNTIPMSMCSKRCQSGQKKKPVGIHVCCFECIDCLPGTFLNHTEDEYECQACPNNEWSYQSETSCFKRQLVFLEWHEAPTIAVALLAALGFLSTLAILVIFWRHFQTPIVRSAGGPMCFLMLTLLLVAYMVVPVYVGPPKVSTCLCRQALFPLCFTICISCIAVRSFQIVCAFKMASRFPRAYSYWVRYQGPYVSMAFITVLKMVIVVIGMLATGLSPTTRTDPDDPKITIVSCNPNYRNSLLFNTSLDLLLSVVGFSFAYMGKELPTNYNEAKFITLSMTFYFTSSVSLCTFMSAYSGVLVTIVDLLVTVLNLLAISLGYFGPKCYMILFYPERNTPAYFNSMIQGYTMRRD
# Sequence (Q7RTX0 21-852 P780A): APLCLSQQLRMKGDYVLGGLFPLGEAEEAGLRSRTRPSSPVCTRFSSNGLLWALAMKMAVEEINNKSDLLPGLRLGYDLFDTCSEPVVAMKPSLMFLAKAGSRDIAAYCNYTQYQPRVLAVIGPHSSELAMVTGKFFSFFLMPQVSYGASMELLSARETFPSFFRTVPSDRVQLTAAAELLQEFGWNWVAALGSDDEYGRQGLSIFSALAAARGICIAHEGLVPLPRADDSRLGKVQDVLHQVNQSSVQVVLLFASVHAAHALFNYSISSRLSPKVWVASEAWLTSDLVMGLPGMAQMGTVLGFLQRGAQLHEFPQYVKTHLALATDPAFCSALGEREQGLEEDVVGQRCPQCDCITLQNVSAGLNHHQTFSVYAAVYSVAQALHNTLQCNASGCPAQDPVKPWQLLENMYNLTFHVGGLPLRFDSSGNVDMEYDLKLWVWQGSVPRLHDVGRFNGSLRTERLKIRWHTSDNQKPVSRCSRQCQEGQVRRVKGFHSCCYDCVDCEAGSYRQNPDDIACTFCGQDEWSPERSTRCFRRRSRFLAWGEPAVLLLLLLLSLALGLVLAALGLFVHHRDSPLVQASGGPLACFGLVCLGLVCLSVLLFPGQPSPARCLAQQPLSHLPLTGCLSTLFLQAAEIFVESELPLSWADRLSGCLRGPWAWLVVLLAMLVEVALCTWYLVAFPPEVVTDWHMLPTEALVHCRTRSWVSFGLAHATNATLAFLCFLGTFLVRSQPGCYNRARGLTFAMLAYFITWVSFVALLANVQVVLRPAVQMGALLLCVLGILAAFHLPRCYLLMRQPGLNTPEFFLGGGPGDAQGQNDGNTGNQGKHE
# assay-info: Calcium mobilisation assay, TAS1R2-WT with TAS1R3 variant P780A
# Format: cell-based
# condition-description: read-out: EC50
pEC50: −log10 of the molar value.
measure-name: pEC50

compound | test-value
COC(=O)[C@H](Cc1ccccc1)NC(=O)[C@H](CC(=O)O)NCCC(C)(C)C [Neotame] | 5.99
C[C@H](CC[C@@H](O[C@@H]1O[C@H](CO[C@@H]2O[C@H](CO)[C@@H](O)[C@H](O)[C@H]2O)[C@@H](O)[C@H](O)[C@H]1O[C@@H]1O[C@H](CO)[C@@H](O)[C@H](O)[C@H]1O)C(C)(C)O)[C@H]1CC[C@@]2(C)[C@@H]3CC=C4[C@@H](CC[C@H](O[C@@H]5O[C@H](CO[C@@H]6O[C@H](CO)[C@@H](O)[C@H](O)[C@H]6O)[C@@H](O)[C@H](O)[C@H]5O)C4(C)C)[C@]3(C)[C@H](O)C[C@]12C [Mogroside V, mogroside V] | 4.65
O=S(=O)(O)NC1CCCCC1 [Cyclamate, cyclamate] | 2.93
C=C(C)[C@@H]1CC=C(/C=N/O)CC1 [Perillartine, perillartine] | 4.90
